Data provenance is ChEMBL document CHEMBL4715736.

# Tested on: CAKI-1
# Protocol summary: Growth inhibition of human CAKI-1 cells assessed as cell growth at 10 uM incubated for 48 hrs by sulforhodamine B assay relative to control
# Type: functional
# Recorded conditions: read-out: Activity
Recorded metric: growth at 10 µM (%)
Give bare numbers, in %.

Examples with answers:
>  <Compound smiles>
Cc1cc(C)c(NC(=O)c2sc3nc4c(cc3c2N)CN(Cc2ccccc2)CC4)c(C)c1

>  <Recorded metric>
growth at 10 µM

>  <Numeric value>
18

$$$$
>  <Compound smiles>
Cc1ccc(NC(=O)c2sc3nc4c(cc3c2N)C(=O)CCC4)cc1C

>  <Recorded metric>
growth at 10 µM

>  <Numeric value>
35.7

$$$$
>  <Compound smiles>
CN1CCc2nc3sc(C(N)=O)c(N)c3c(-c3cccs3)c2C1

>  <Recorded metric>
growth at 10 µM

>  <Numeric value>
11

$$$$
>  <Compound smiles>
COc1ccc(S(=O)(=O)n2ccc(-c3ccc(OC(C)C)cc3)n2)cc1

>  <Recorded metric>
growth at 10 µM

>  <Numeric value>
66

$$$$
>  <Compound smiles>
CC(=O)Nc1ccc(S(=O)(=O)n2ccc(-c3ccc4c(c3)CCC(C)(C)O4)n2)cc1

>  <Recorded metric>
growth at 10 µM

>  <Numeric value>
48.8

$$$$

Provide growth at 10 µM for all items below, preserving their order.
1. CC1(C)CCc2cc(-c3ccn(S(=O)(=O)c4ccc(C(F)(F)F)cc4)n3)ccc2O1
2. CC1(C)CCc2cc(-c3ccn(S(=O)(=O)c4ccc(C(C)(C)C)cc4)n3)ccc2O1

**A:**
1: 76.7; 2: 68.9

I need growth at 10 µM for every entry listed below, if you could help.
1. CCc1ccccc1NC(=O)c1sc2nc3c(cc2c1N)C(=O)CCC3
2. Cc1ccc(S(=O)(=O)n2ccc(-c3ccc(OCCCF)cc3)n2)cc1
3. Nc1c(C(=O)Nc2ccccc2)sc2nc3c(cc12)CN(Cc1ccccc1)CC3

**A:**
[29.9, 63.8, 56]

----------
Would you mind telling me the reported growth at 100 µM of each entry?
# System: M14
# Protocol summary: Growth inhibition of human M14 cells assessed as cell growth at 100 uM incubated for 48 hrs by sulforhodamine B assay relative to control
# Type: functional
# Recorded conditions: read-out: Activity
One number for each entry, in %.

Example entries begin here.
>  <Compound smiles>
COc1cccc(NC(=O)c2sc3nc4c(cc3c2N)CN(Cc2ccccc2)CC4)c1

>  <Measurement target>
M14

>  <growth at 100 µM, %>
-4

$$$$
>  <Compound smiles>
Nc1c(C(=O)Nc2ccccc2)sc2nc3c(cc12)CN(Cc1ccccc1)CC3

>  <Measurement target>
M14

>  <growth at 100 µM, %>
35

$$$$

Now look at this entry.
**Q:** I'd like to know its growth at 100 µM. The compound in question is CCc1ccccc1NC(=O)c1sc2nc3c(cc2c1N)C(=O)CCC3
**A:** 7

----------
# Test system: COLO 205
# Protocol summary: Growth inhibition of human COLO 205 cells incubated for 48 hrs by sulforhodamine B assay
# Type: functional
So basically: is TGI under 10 µM? Then 1. Not under? Then -1.

Example results:
>  <Compound smiles>
Nc1c(C(=O)Nc2ccccc2)sc2nc3c(cc12)CN(Cc1ccccc1)CC3

>  <Assigned class>
-1

$$$$
>  <Compound smiles>
CN1CCc2nc3sc(C(N)=O)c(N)c3c(-c3cccs3)c2C1

>  <Assigned class>
1

$$$$
>  <Compound smiles>
CCc1ccccc1NC(=O)c1sc2nc3c(cc2c1N)C(=O)CCC3

>  <Assigned class>
-1

$$$$
>  <Compound smiles>
Cc1ccc(NC(=O)c2sc3nc4c(cc3c2N)C(=O)CCC4)cc1C

>  <Assigned class>
-1

$$$$
>  <Compound smiles>
Cc1cccc(NC(=O)c2sc3nc4c(cc3c2N)C(=O)CCC4)c1

>  <Assigned class>
-1

$$$$

Please find the next compound below.
**Q:** Is TGI of COc1cccc(NC(=O)c2sc3nc4c(cc3c2N)CN(Cc2ccccc2)CC4)c1 strictly below 10 µM?
**A:** -1

----------
# Tested on: PC-3
# Protocol summary: Growth inhibition of human PC-3 cells assessed as cell growth at 0.01 uM incubated for 48 hrs by sulforhodamine B assay relative to control
# Type: functional
# Recorded conditions: read-out: Activity
Would you kindly list growth at 0.01 µM for each of these molecules?
Numbers only, in %.

Example molecules with recorded growth at 0.01 µM:
>  <Compound smiles>
COc1cccc(NC(=O)c2sc3nc4c(cc3c2N)CN(Cc2ccccc2)CC4)c1

>  <growth at 0.01 µM / %>
94

$$$$
>  <Compound smiles>
Cc1cccc(NC(=O)c2sc3nc4c(cc3c2N)C(=O)CCC4)c1

>  <growth at 0.01 µM / %>
95

$$$$
>  <Compound smiles>
Nc1c(C(=O)Nc2ccccc2)sc2nc3c(cc12)CN(Cc1ccccc1)CC3

>  <growth at 0.01 µM / %>
95

$$$$

Report growth at 0.01 µM for each item below.
1. CN1CCc2nc3sc(C(N)=O)c(N)c3c(-c3cccs3)c2C1
2. Cc1cc(C)c(NC(=O)c2sc3nc4c(cc3c2N)CN(Cc2ccccc2)CC4)c(C)c1
3. CCc1cccc(C)c1NC(=O)c1sc2nc3c(cc2c1N)C(=O)CCC3

**A:**
[105, 94, 94]

----------
# Test system: MCF7
# Protocol summary: Growth inhibition of human MCF7 cells assessed as cell growth at 0.1 uM incubated for 48 hrs by sulforhodamine B assay relative to control
# Assay type: functional
# Recorded conditions: read-out: Activity
Recorded metric: growth at 0.1 µM
Include the unit right after the number.

Here are 6 compounds. What values of growth at 0.1 µM were reported for them?
1. Cc1cccc(NC(=O)c2sc3nc4c(cc3c2N)C(=O)CCC4)c1
2. COc1cccc(NC(=O)c2sc3nc4c(cc3c2N)CN(Cc2ccccc2)CC4)c1
3. CCc1ccccc1NC(=O)c1sc2nc3c(cc2c1N)C(=O)CCC3
4. CCc1cccc(C)c1NC(=O)c1sc2nc3c(cc2c1N)C(=O)CCC3
5. Cc1ccc(NC(=O)c2sc3nc4c(cc3c2N)C(=O)CCC4)cc1C
6. Cc1cc(C)c(NC(=O)c2sc3nc4c(cc3c2N)CN(Cc2ccccc2)CC4)c(C)c1

**A:**
1. 56%
2. 87%
3. 83%
4. 90%
5. 86%
6. 91%

Lab note: each compound below needs its growth at 0.1 µM filled in.
1. CN1CCc2nc3sc(C(N)=O)c(N)c3c(-c3cccs3)c2C1
2. Nc1c(C(=O)Nc2ccccc2)sc2nc3c(cc12)CN(Cc1ccccc1)CC3

**A:**
107%
86%

----------
# System: OVCAR-3
# Protocol summary: Growth inhibition of human OVCAR-3 cells assessed as cell growth at 100 uM incubated for 48 hrs by sulforhodamine B assay relative to control
# Assay type: functional
# Recorded conditions: read-out: Activity
Assign growth at 100 µM to each entry below.
Give bare numbers, in %.

>  <Compound smiles>
CCc1cccc(C)c1NC(=O)c1sc2nc3c(cc2c1N)C(=O)CCC3

>  <growth at 100 µM (%)>
-50

$$$$
>  <Compound smiles>
Cc1cc(C)c(NC(=O)c2sc3nc4c(cc3c2N)CN(Cc2ccccc2)CC4)c(C)c1

>  <growth at 100 µM (%)>
-47

$$$$
>  <Compound smiles>
Nc1c(C(=O)Nc2ccccc2)sc2nc3c(cc12)CN(Cc1ccccc1)CC3

>  <growth at 100 µM (%)>
20

$$$$
>  <Compound smiles>
CN1CCc2nc3sc(C(N)=O)c(N)c3c(-c3cccs3)c2C1

>  <growth at 100 µM (%)>
-8

$$$$
>  <Compound smiles>
Cc1ccc(NC(=O)c2sc3nc4c(cc3c2N)C(=O)CCC4)cc1C

>  <growth at 100 µM (%)>
-23

$$$$
>  <Compound smiles>
CCc1ccccc1NC(=O)c1sc2nc3c(cc2c1N)C(=O)CCC3

>  <growth at 100 µM (%)>
-36

$$$$
>  <Compound smiles>
Cc1cccc(NC(=O)c2sc3nc4c(cc3c2N)C(=O)CCC4)c1

>  <growth at 100 µM (%)>
-23

$$$$

**Q:** Request the reported growth at 100 µM associated with COc1cccc(NC(=O)c2sc3nc4c(cc3c2N)CN(Cc2ccccc2)CC4)c1
**A:** -60

----------
# System: SR
# Protocol summary: Growth inhibition of human SR cells incubated for 48 hrs by sulforhodamine B assay
# Type: functional
Recorded metric: TGI

For each of the items listed, what is its TGI?
1. Nc1c(C(=O)Nc2ccccc2)sc2nc3c(cc12)CN(Cc1ccccc1)CC3
2. CCc1ccccc1NC(=O)c1sc2nc3c(cc2c1N)C(=O)CCC3
3. COc1cccc(NC(=O)c2sc3nc4c(cc3c2N)CN(Cc2ccccc2)CC4)c1
4. Cc1cc(C)c(NC(=O)c2sc3nc4c(cc3c2N)CN(Cc2ccccc2)CC4)c(C)c1
5. Cc1ccc(NC(=O)c2sc3nc4c(cc3c2N)C(=O)CCC4)cc1C
6. CN1CCc2nc3sc(C(N)=O)c(N)c3c(-c3cccs3)c2C1

**A:**
1: > 100 µM; 2: > 100 µM; 3: 47.7 µM; 4: 10.7 µM; 5: 26.8 µM; 6: 7.31 µM

**Q:** Please provide the recorded TGI for CCc1cccc(C)c1NC(=O)c1sc2nc3c(cc2c1N)C(=O)CCC3 , tested on SR.
**A:** ≥ 100 µM
